# assay.remarks: 12mer Tm study
# Type: binding
# condition.notes: all linkages phosphodiester
[αj] = substituted alpha-L-bicyclic nucleoside, publication subscript αj; [αl] = substituted alpha-L-bicyclic nucleoside, publication subscript αl; [αg] = code of the source, not defined here; d = 2'-deoxy (DNA)
Listing: Tm (° C.) of selected substances

>  <substance>
07/454310: 12mer GCGTTUαgTαgTTGCT, all linkages phosphodiester (GCGTTUTTTGCT; sugars from the 5' end d5 [αg]2 d5, all phosphodiester, methylation of C not given here)

>  <output.unit>
°C

>  <Tm (° C.)>
53.6

$$$$
>  <substance>
07/449245: 12mer GCGTTUαjTαjTTGCT, all linkages phosphodiester (GCGTTUTTTGCT; sugars from the 5' end d5 [αj]2 d5, all phosphodiester, methylation of C not given here)

>  <output.unit>
°C

>  <Tm (° C.)>
47.1

$$$$
>  <substance>
07/438711: 12mer GCGTTUαlTTTGCT, all linkages phosphodiester (GCGTTUTTTGCT; sugars from the 5' end d5 [αl]1 d6, all phosphodiester, methylation of C not given here) [reference compound]

>  <output.unit>
°C

>  <Tm (° C.)>
50.2

$$$$
